From: patent US20260216170A1

Target entity: Human BCL-XL protein (N-terminal HiBiT tagged BCL-XL expressed in HT1080 cells) (Homo sapiens)
Construct: expressed in transfected cells; host or cells: HT-1080 (ATCC CCL-121), stably transduced with lentivirus pLV-UBC-N-HiBiT-BCL-XL-PGK-puro and selected with puromycin
Sequence (Q07817 whole entry): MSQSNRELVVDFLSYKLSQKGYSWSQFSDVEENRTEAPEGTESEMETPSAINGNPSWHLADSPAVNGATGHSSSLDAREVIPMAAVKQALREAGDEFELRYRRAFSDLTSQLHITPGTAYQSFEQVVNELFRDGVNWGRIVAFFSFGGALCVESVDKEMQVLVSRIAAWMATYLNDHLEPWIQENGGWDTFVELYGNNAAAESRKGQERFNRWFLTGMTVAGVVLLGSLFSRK
Experiment: HiBiT Based Degradation Assay
Type: cell-based
Setup conditions: BCL-XL degradation, HT1080 cells expressing N-HiBiT-BCL-XL, 24 hours incubation, normalized with DMSO control; geometric mean for multiple data points; read-out: EC50 (24 h)
Method: HiBiT Based Degradation Assay Human BCL-XL protein coding open reading frame fused with N-terminal HiBiT coding sequence (N-HiBiT-BCL-XL) was synthesized from Integrated DNA Technologies (IDT). Next, N-HiBiT-BCL-XL sequence was cloned into pLV-UBC-PGK-Puro, a lentivirus plasmid purchased from Vectorbuilder, to generate pLV-UBC-N-HiBiT-BCL-XL-PGK-puro. […] After incubation, luminescence was read on a PHERAstar FSX Plate Reader (BMG). […]
Please provide measured DC50 for the entries that follow.

Use the examples below as a reference point.
Cc1cc(OCCCCC2CCN(CC(=O)Nc3ccc4c(C5CCC(=O)NC5=O)nn(C)c4c3)CC2)ccc1-c1ccc(N2CCc3cccc(C(=O)Nc4nc5ccccc5s4)c3C2)nc1C(=O)O (stereo not drawn) : < 10 nM
Cc1c(OCC2CC3(CCN(CC(=O)Nc4ccc5c(C6CCC(=O)NC6=O)nn(C)c5c4C)CC3)C2)cccc1-c1ccc(N2CCc3cccc(C(=O)Nc4nc5ccccc5s4)c3C2)nc1C(=O)O (stereo not drawn) : 10 to 100 nM

Now consider the entry below.
Please indicate DC50 recorded for Cn1nc(C2CCC(=O)NC2=O)c2ccc(NC(=O)CN3CCC4(CC3)CC(COc3cccc(-c5ccc(N6CCc7cccc(C(=O)Nc8nc9ccccc9s8)c7C6)nc5C(=O)O)c3C(F)(F)F)C4)cc21 (stereo not drawn)
10 to 100 nM
